Overview of recorded growth inhibition for various compounds
- assayNotes: NCI Yeast Anticancer Drug Screen. Data for the mlh1 rad18 strain (AID 175)
- assaySetup: S. cerevisiae mlh1 rad18 strain growth inhibition; at 50.0 µM (retest, dose inferred, filed as 5.0); active compounds read high
About 79,000 compounds went through this panel and 15% of them were active in at least one assay; those are over-represented in the sample as a whole.
Your answer should be a plain number; it is taken to be in %.

// worked examples, growth inhibition included
                                   compound   propertymeasured  observedmeasurement
0         CCC(=O)NC1=C(Cl)C(=O)c2ccccc2C1=O  growth inhibition                   99
1  CCC[CH2][Sn]([CH2]CCC)([O]C(=O)c1cccc(F)c1F)[O]C(=O)c1cccc(F)c1F  growth inhibition                   67
2  CC(=O)SC(C[N+](=O)[O-])c1ccc2c(c1)OCO2 (configuration not stated)  growth inhibition                   97
3  Cc1nc(-c2ccccc2)nc2c1nc(C(C)C)n2Nc1ccccc1  growth inhibition                   37
4  CC[N-]c1nncs1.CC[N-]c1nncs1.CC[N-]c1nncs1.CC[N-]c1nncs1.[Cl][Rh][Cl]  growth inhibition                   95
5  O=S1CCS(=O)C1c1ccccc1 (configuration not stated)  growth inhibition                   39
6  OCC(c1ccccc1)[P+](c1ccccc1)(c1ccccc1)c1ccccc1 (configuration not stated)  growth inhibition                    5
7  NC1=NC(c2ccccc2)CC(c2cc(Cl)cc(Br)c2O)=N1 (configuration not stated)  growth inhibition                   46
8           COC(=O)c1ccc(CCc2cc(O)ccc2O)cc1  growth inhibition                   99
9                 CCCCOC(=O)c1ccc(O)c(OC)c1  growth inhibition                    3

query: I would be grateful if you could share the reported growth inhibition for Cn1cnc([N+](=O)[O-])c1Sc1ccc(Cl)cc1 .
result: 97

query: Check COc1ccccc1C1(c2ccccc2OC)OC(=O)c2ccccc21 too.
result: 33

* * *

- assayNotes: NCI Yeast Anticancer Drug Screen. Data for the bub3 strain (AID 167)
- assaySetup: S. cerevisiae bub3 mutant strain, at 5.0 µM (retest, dose inferred, filed as 0.5)
Compounds without any hit were thinned out: in the full panel of roughly 79,000, 15% have a hit. The source made the active and inactive calls. Rule as the data show it: active = growth inhibition above about 70%; inactive = the rest.
Give one outcome, nothing more. List: y (active), n (inactive)

Below are worked cases with known answers.
In [3]: df
Out[3]:
                                   compound  classification
0  C=CC(c1ccccc1)[C@@]1(OC(C)=O)C(=O)C(=O)OC1C1COC(C)(C)O1 (stereo partly specified)               y
1                   CCCSc1ncnc2nc(C)[nH]c12               n
2  O=C(CSc1nnc(Cc2ccccc2)o1)Nc1ccc(Cl)cc1[N+](=O)[O-]               n
3  c1ccc(C2=NOC3(c4ccccc4)SC4CCCCC4CN23)cc1 (stereo unspecified)               n

query: Dear colleague, could you share the recorded outcome for CC(=O)OCC1OC(N2CCc3cc([N+](=O)[O-])ccc32)C(OC(C)=O)C(OC(C)=O)C1OC(C)=O (stereo unspecified) when you have a moment?
result: n

query: Check O=C1c2cccc3cccc(c23)C1(Br)Br too.
result: n

query: Check CC(=O)Nc1cccc(Oc2ccc(Br)cc2[N+](=O)[O-])c1 too.
result: n

query: Check CC(=O)C(C(C)=O)C1C=CC=CC=C1 too.
result: n

query: Check CCN(CC)CCCC(=O)Nc1cc(OC)cc2cccnc12 too.
result: n

query: Check Cc1ccc(S(=O)(=O)Nc2ccc(C)cc2C)cc1 too.
result: n

query: Check CCCCC(CC)CNc1ncnc2c1cnn2C (stereo unspecified) too.
result: n
